All values here come from patent US20100130509A1.

A collection of compounds and their measured MIC
# Test system: S. aureus strain ATCC 6538
# Assay info: MIC test (CLSI M7-A6 dilution), S. aureus ATCC 6538
# Assay type: cell-based, Staphylococcus aureus
# Experimental setup: Staphylococcus aureus, ATCC6538; Table II, Example 3; read-out: MIC S. aureus ATCC 6538
// units = mg/L; emit number, no label

Answered examples (3):
[[record]]
compound = "Cc1ccccc1-n1nnnc1C(Cl)(Cl)C(=O)NC(C)C [NewCo 0059]"
tested_on = "S. aureus strain ATCC 6538"
observed_result = 25

[[record]]
compound = "Cc1ccccc1-n1nnnc1C(Cl)(Cl)C(=O)Nc1ccccc1 [NewCo 0058]"
tested_on = "S. aureus strain ATCC 6538"
observed_result = 0.39

[[record]]
compound = "Cc1ccccc1-n1nnnc1C(Cl)(Cl)C(=O)Nc1ccncc1 [NewCo 0061]"
tested_on = "S. aureus strain ATCC 6538"
observed_result = 0.78


Okay, next one:
Given the compound Cc1ccccc1-n1nnnc1C(Cl)(Cl)C(N)=O [NewCo 0063] , what is its reported MIC?
1.56

---

# Test system: Staphylococcus aureus
# Assay info: Antibiotic activity towards Staphylococcus aureus (summary statements)
# Type: cell-based
# Experimental setup: statement in words
Measured endpoint: efficacy as antimicrobial agents

Answered examples (4):
[[record]]
structure_string = "O=C(Nc1ccccc1)C(Cl)(Cl)c1nnnn1-c1ccccc1"
tested_on = "Staphylococcus aureus"
observed_result = "exceptionally good"

[[record]]
structure_string = "COc1ccccc1NC(=O)C(Cl)(Cl)c1nnnn1-c1ccccc1OC"
tested_on = "Staphylococcus aureus"
observed_result = "exceptionally good"

[[record]]
structure_string = "Cc1ccccc1-n1nnnc1C(Cl)(Cl)C(=O)Nc1ccncc1"
tested_on = "Staphylococcus aureus"
observed_result = "exceptionally good"

[[record]]
structure_string = "Cc1ccccc1-n1nnnc1C(Cl)(Cl)C(=O)Nc1ccccc1"
tested_on = "Staphylococcus aureus"
observed_result = "exceptionally good"


Given the compound Cc1ccccc1-n1nnnc1C(Cl)(Cl)C(N)=O , what is its reported efficacy as antimicrobial agents?
exceptionally good
